Tested on: Pseudomonas fluorescens HPPD polypeptide (wild-type and mutants)
Assay: Coupled HPPD activity assay: turnover and residual turnover in crude HPPD polypeptide extracts with and without Cmpd. 1
Format: biochemical
Settings: absence of Cmpd. 1; changes in absorbance (OD) at 320 nm in the coupled assay, 30 min

{"columns": ["Molecule", "Turnover"],
 "data": [
  ["SEQ ID NO:56 (protein, mutant HPPD polypeptide) MADLYENPMGLMGFEFIEFASPTPGTLEPIFEIMGFTKVATHRSKNVHLYRQGEINLILNNEPNSIASYFAAEHGPSVCGMAFRVKDSQKAYNRALELGAQPIHIDTGPMELNLPAIKGIGGAPLYLIDRFGEGSSIYDIDFVYLEGVERNPVGAGLKVIDHLTHNVYRGRMVYWANFYEKLFNFREARYFDIKGEYTGLTSKAMSAPDGMIRIPLNEESSKGAGQIEEFLMQFNGEGIQHVAFLTDDLVKTWDALKKIGMRFLTAPGDEYYEMLEGRLPDHGEPVDQLQARGILLDGSSVEGDKRLLLQIFSEQLMGPVFFEFIQRKGDDGFGPHSFKVLFEQMERDQVRRGVLTAD", 0.339],
  ["SEQ ID NO:59 (protein, mutant HPPD polypeptide) MADLYENPMGLMGFEFIEFASPTPGTLEPIFEIMGFTKVATHRSKNVHLYRQGEINLILNNEPNSIASYFAAEHGPSVCGMAFRVKDSQKAYNRALELGAQPIHIDTGPMELNLPAIKGIGGAPLYLIDRFGEGSSIYDIDFVYLEGVERNPVGAGLKVIDHLTHNVYRGRMVYWANFYEKLFNFREARYFDIKGEYTGLTSKAMSAPDGMIRIPLNEESSKGAGQIEEFLMQFNGEGIQHVAFLTDDLVKTWDALKKIGMRFLTAPGDEYYEMLEGRLPDHGEPVDQLQARGILLDGSSVEGDKRLLLQIFSEKLMGPVFFEFIQRKGDDGFGPDSFKVLFEQMERDQVRRGVLTAD", 0.215]
]}
